- Subject Of Test: human activated protein C (human, UniProt P04070 43-197; P04070 212-461)
- Experiment: cell-based or functional assay
Reported Mean clotting time (s), FIX-deficient plasma, APC-antibody concentration 1 ug/ml values are given for each entry in this list.
Note: unit s is implicit; provide only the numeric part.

// known answers, use as guide
>  <Binder>
HAPC-14-7 (antibody, V domains shown, Whole IgG, backbone hIgG1; also called HPAC 14-7) VH: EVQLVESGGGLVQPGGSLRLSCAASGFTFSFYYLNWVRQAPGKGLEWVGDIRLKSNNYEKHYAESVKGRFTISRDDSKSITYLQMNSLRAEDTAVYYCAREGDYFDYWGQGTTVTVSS VL: DIQLTQSPSSLSASVGDRVTITCRASESVDSFGATFMHWYQQKPGKAPKLLIYLASRLESGVPSRFSGSGSGTDFTLTISSLQPEDFATYYCQQNNEDPYTFGQGTKLEIK

>  <Unit Name>
s

>  <Result Value>
145

$$$$
>  <Binder>
HAPC-14-2 (antibody, V domains shown, Whole IgG, backbone hIgG1; also called HPAC 14-2) VH: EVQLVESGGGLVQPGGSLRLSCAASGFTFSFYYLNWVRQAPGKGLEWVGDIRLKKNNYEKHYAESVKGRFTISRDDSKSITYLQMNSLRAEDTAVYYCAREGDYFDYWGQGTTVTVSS VL: DIQLTQSPSSLSASVGDRVTITCRASESVDSFGATFMHWYQQKPGKAPKLLIYLASWLESGVPSRFSGSGSGTDFTLTISSLQPEDFATYYCVQNNEDPYTFGQGTKLEIK

>  <Unit Name>
s

>  <Result Value>
211

$$$$
>  <Binder>
HAPC-14-10 (antibody, V domains shown, Whole IgG, backbone hIgG1; also called HPAC 14-10) VH: EVQLVESGGGLVQPGGSLRLSCAASGFTFSNYYLNWVRQAPGKGLEWVGDIRLKKNNYEKHYAESVKGRFTISRDDSKSITYLQMNSLRAEDTAVYYCAREGDTFDYWGQGTTVTVSS VL: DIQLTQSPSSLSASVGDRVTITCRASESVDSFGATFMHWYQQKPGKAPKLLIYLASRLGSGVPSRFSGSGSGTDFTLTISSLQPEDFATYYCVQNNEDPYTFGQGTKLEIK

>  <Unit Name>
s

>  <Result Value>
158

$$$$
>  <Binder>
HAPC-14-6 (antibody, V domains shown, Whole IgG, backbone hIgG1; also called HPAC 14-6; No. 6) VH: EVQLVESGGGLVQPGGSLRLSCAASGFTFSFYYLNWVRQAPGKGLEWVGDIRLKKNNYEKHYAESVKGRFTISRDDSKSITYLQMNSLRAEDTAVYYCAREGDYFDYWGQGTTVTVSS VL: DIQLTQSPSSLSASVGDRVTITCRASESVDSFGATFMHWYQQKPGKAPKLLIYLASRLGSGVPSRFSGSGSGTDFTLTISSLQPEDFATYYCQQNNEDPYTFGQGTKLEIK

>  <Unit Name>
s

>  <Result Value>
198

$$$$

Now, please, on to the next binder.
Using known records, supply Mean clotting time (s), FIX-deficient plasma, APC-antibody concentration 1 ug/ml for HAPC-14-5 (antibody, V domains shown, Whole IgG, backbone hIgG1; also called HPAC 14-5) VH: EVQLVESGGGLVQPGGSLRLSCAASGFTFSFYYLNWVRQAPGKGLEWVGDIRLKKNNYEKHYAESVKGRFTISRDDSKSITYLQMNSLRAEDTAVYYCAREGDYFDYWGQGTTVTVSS VL: DIQLTQSPSSLSASVGDRVTITCRASESVDSFGATFMHWYQQKPGKAPKLLIYLASWLGSGVPSRFSGSGSGTDFTLTISSLQPEDFATYYCVQNNEDPYTFGQGTKLEIK 188
